- Experimental Protocol: protein stability index of a GFP-peptide fusion (GPS, HEK-293T) (PSI 1-6); higher = more stable;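 note: 24-mer peptide tiles fused after GFP, lentivirally expressed, FACS-sorted into six equal bins by GFP/DsRed ratio, decoded by Illumina sequencing, PSI is the read-weighted mean bin number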
- Condition Description: treatment: DMSO; c terminus: native
Endpoint: protein stability index

See these solved cases before continuing.
REKIMKLPLPESLKAYLTYFRDK [PCMTD1] : 2.05
NDMRDTPLHRAAFTGRKICSQGS [OSBPL1A] : 2.87
DESGYVSGYKHAGTYDQKVQGGK [TPPP] : 5.24
AGSRQALSFEVPPCNYDPEKWIQ : 2.69

// batch mode: one protein stability index value per listed entry
1. YCSIKCQQEHWHAEHKRTCRRKR [ZMYND11]
2. YPSYKVREKIETVKYPTYPEAEK [FUT8]
3. GSGADSEPARHIFSFSWLNSLNE [TRIM55]
4. REMVMYSITVAFWLLNSWLWFRR [MFF]
5. LHPFFAGLTPEERSFHTSRNPSR [CLK3]
6. TWASPAEVVDLTLDEDSRRKYLL [C18orf25]
7. YFSTPQTMDLFLNYSMNMQPEDV [NANOGP8]

RESULT:
1: 2.92; 2: 4.07; 3: 3.53; 4: 2.27; 5: 2.72; 6: 4.49; 7: 2.34

// batch mode: one protein stability index value per listed entry
1. FSLTHTHTHTPNHRGINCFFPEL [ANKRD44]
2. SLGSESEEEEEFYDADEETQMIK [SLC22A15]
3. VFGRGDNISDVSKFLEDDKWMEE [LUC7L3]
4. TSSKPTALPSASSAYFPGQLPNS [SASS6]
5. PPKSVNPTCMCCQATSSTACHIQ [FAM219A]

RESULT:
1: 2.54; 2: 5.01; 3: 2.4; 4: 4.42; 5: 2.92

QUERY: Suppose we examine the sequence ELSTLRNLFKQLPEPLLASSGHC [CEBPB] ; what protein stability index value has been reported?
RESULT: 2.12

These measurements were taken from the supplement of paper PMC10567573.
